- TARGET SYSTEM: Phosphatidylinositol 4,5-bisphosphate 3-kinase catalytic subunit beta isoform (Homo sapiens)
- Sequence (P42338 whole entry, canonical isoform): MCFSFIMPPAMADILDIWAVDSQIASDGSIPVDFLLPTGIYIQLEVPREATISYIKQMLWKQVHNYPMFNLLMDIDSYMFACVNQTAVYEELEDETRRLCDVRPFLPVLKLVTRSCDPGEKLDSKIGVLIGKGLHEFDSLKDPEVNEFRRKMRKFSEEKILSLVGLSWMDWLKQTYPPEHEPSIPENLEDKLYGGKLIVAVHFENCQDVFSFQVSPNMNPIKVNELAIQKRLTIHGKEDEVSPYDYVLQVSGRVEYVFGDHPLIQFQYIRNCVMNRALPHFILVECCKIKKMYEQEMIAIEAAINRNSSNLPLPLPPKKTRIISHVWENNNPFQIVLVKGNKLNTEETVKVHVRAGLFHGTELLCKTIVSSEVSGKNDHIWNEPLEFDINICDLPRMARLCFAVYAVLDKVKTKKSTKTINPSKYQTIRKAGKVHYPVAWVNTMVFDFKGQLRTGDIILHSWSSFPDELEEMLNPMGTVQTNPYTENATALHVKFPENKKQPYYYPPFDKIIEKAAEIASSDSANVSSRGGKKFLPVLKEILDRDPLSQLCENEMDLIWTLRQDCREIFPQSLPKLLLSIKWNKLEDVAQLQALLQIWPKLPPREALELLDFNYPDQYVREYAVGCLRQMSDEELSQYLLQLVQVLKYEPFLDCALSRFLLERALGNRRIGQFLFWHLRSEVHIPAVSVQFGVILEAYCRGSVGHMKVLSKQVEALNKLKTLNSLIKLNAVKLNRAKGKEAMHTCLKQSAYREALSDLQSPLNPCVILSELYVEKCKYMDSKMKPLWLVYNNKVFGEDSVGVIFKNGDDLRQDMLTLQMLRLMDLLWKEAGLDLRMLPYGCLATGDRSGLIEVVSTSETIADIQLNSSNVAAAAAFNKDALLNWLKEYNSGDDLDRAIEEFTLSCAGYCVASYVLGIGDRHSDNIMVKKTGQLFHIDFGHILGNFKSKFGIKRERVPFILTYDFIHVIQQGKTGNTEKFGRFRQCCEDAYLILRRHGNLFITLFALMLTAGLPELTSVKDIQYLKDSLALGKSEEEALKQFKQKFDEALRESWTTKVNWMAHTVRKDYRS
- PROTOCOL: Inhibition of PI3Kbeta (unknown origin) expressed in SF21 cells using phosphatidylinositol as substrate after 60 mins by Kinase-Glo assay
pIC50: −log10 of the molar value.
MEASURED METRIC: pIC50

test_smiles=COc1ccc2c(c1)nc(C(C)C)n2-c1nc(N2CCOCC2)nc(N2CCOCC2)n1 value_reported="< 5.00"
test_smiles=COc1ccc2c(c1)nc(C)n2-c1nc(N2CCOCC2)nc(N2CCOCC2)n1 value_reported="< 5.00"
test_smiles=COc1ccc2c(c1)nc(C(F)F)n2-c1nc(N2CCOCC2)nc(N2CCOCC2)n1 value_reported="< 5.00"
